- Measured On: Trypsin, Iodination grade, from human pancreas (human, UniProt P07477 24-247)
- Assay Overview: cell-based or functional assay
Recorded Metric: % inhibition at 100 µM (%)
Reply with just the number (in %).

Ask: If you can, please state the reported % inhibition at 100 µM value of FCTXSDPPICY (HELM PEPTIDE1{F.C.T.[Nle].S.D.P.P.I.C.Y.[dP].P}$PEPTIDE1,PEPTIDE1,2:R3-10:R3|PEPTIDE1,PEPTIDE1,1:R1-13:R2$$$V2.0; SMILES CCCC[C@@H]1NC(=O)[C@H]([C@@H](C)O)NC(=O)[C@@H]2CSSC[C@H](NC(=O)[C@H]([C@@H](C)CC)NC(=O)[C@@H]3CCCN3C(=O)[C@@H]3CCCN3C(=O)[C@H](CC(=O)O)NC(=O)[C@H](CO)NC1=O)C(=O)N[C@@H](Cc1ccc(O)cc1)C(=O)N1CCC[C@@H]1C(=O)N1CCC[C@H]1C(=O)N[C@@H](Cc1ccccc1)C(=O)N2) [Example 23] .
Result: 90

Ask: Next binder up: FCTKSDPPICD (HELM PEPTIDE1{F.C.T.K.S.D.P.P.I.C.D.[dP].P}$PEPTIDE1,PEPTIDE1,2:R3-10:R3|PEPTIDE1,PEPTIDE1,1:R1-13:R2$$$V2.0; SMILES CC[C@H](C)[C@@H]1NC(=O)[C@@H]2CCCN2C(=O)[C@@H]2CCCN2C(=O)[C@H](CC(=O)O)NC(=O)[C@H](CO)NC(=O)[C@H](CCCCN)NC(=O)[C@H]([C@@H](C)O)NC(=O)[C@@H]2CSSC[C@H](NC1=O)C(=O)N[C@@H](CC(=O)O)C(=O)N1CCC[C@@H]1C(=O)N1CCC[C@H]1C(=O)N[C@@H](Cc1ccccc1)C(=O)N2) [Example 2]
Result: 92
